Readings of IC50 Ratio (vs PYY(3-36)) for the listed binders
target: human Y2 receptor (human) (UniProt P49146); assay: RBA: [125I]-PYY displacement, hY2R/CHO membranes
Sequence (P49146 whole entry): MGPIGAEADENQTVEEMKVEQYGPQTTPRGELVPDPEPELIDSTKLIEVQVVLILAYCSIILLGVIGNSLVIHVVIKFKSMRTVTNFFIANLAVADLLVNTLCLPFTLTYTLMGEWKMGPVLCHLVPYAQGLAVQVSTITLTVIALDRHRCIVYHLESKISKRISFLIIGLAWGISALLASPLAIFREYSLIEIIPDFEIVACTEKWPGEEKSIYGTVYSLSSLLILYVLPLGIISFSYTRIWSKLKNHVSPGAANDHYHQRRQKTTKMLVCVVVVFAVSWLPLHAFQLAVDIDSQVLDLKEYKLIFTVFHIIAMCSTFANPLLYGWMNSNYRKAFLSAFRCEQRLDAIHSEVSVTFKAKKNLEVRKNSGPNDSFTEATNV
Non-standard residues stand in square brackets, D forms with d. *: point of attachment. Cha = N[C@@H](CC1CCCCC1)C(=O)O; dIva = CC[C@@](C)(N)C(=O)O; Isobutyryl = CC(C)C(=O)*; Abu = CC[C@H](N)C(=O)O; Aib = CC(C)(N)C(=O)O
assay readout: IC50 Ratio (vs PYY(3-36))

INSERT INTO assay_data (binder, assay_readout, reported) VALUES
  ('Isobutyryl-R[Abu][Cha][Cha]NS[Aib]TRQR[Cha]-NH2 (SMILES CC[C@H](NC(=O)[C@H](CCCNC(=N)N)NC(=O)C(C)C)C(=O)N[C@@H](CC1CCCCC1)C(=O)N[C@@H](CC1CCCCC1)C(=O)N[C@@H](CC(N)=O)C(=O)N[C@@H](CO)C(=O)NC(C)(C)C(=O)N[C@H](C(=O)N[C@@H](CCCNC(=N)N)C(=O)N[C@@H](CCC(N)=O)C(=O)N[C@@H](CCCNC(=N)N)C(=O)N[C@@H](CC1CCCCC1)C(N)=O)[C@@H](C)O) [Isobutanoyl-[Abu26, Cha27,28,36, Ser30, Aib31]-PYY(25-36)]', 'IC50 Ratio (vs PYY(3-36))', 26),
  ('Ac-S[dP]RH[Cha][Cha][dIva]L[Aib]TRQR[Cha]-NH2 (SMILES CC[C@@](C)(NC(=O)[C@H](CC1CCCCC1)NC(=O)[C@H](CC1CCCCC1)NC(=O)[C@H](Cc1c[nH]cn1)NC(=O)[C@H](CCCNC(=N)N)NC(=O)[C@H]1CCCN1C(=O)[C@H](CO)NC(C)=O)C(=O)N[C@@H](CC(C)C)C(=O)NC(C)(C)C(=O)N[C@H](C(=O)N[C@@H](CCCNC(=N)N)C(=O)N[C@@H](CCC(N)=O)C(=O)N[C@@H](CCCNC(=N)N)C(=O)N[C@@H](CC1CCCCC1)C(N)=O)[C@@H](C)O) [Ac-[D-Pro24, Cha27,28,36, D-Iva29, Aib31]-PYY(23-36)]', 'IC50 Ratio (vs PYY(3-36))', 71);
